test: Selectivity index (GI50/Telomerase IC50)
Entries and their measured SI follow.
Give your answer as a number; write no unit.

GIVEN_SMILES	OBSERVABLE	TEST_RESULT
Cc1ccc2c(c1)-c1c3c(cc(C)cc3c3cc(C)ccc3[n+]1C)N2C	SI	1.8

Look up SI: `CCN1c2ccccc2-c2c3c1cc(C)cc3c1ccccc1[n+]2CC`
0.5

Okay, and `Cc1cc2c3c([n+](C)c4ccc(F)cc4c3c1)-c1cc(F)ccc1N2C` ?
40

Also, `Cc1cc2c3c([n+](C)c4ccccc4c3c1)-c1ccccc1N2C` please.
1.7

Cool, now `Cc1cc2c3c([n+](C)c4ccc(Cl)cc4c3c1)-c1cc(Cl)ccc1N2C`
17
